- assay_text: in vitro
- reported_conditions: human, Cell viability, Mean (%)
- Description: Cell viability and cell morphology were examined to evaluate the toxicity of excipients on retinal pigment epithelial cells. […] To assess cell viability, mitochondrial metabolism was quantified through conventional colorometric assays (i.e., the MTT assay). […] A resulting purple solution is spectrophotometrically measured. Cell viability is relative to amount of formazan and calculated as a percentage of remaining treated compared to non-treated cells. […]
outcome_measure: viability at 72 h, 0.01 % (%)
# number only, unit % dropped from output

Problem: Form field: reported viability at 72 h, 0.01 % of CCCCCCCC/C=C\CCCCCCCC(=O)OCCOCC(OCCO)C1OCC(OCCO)C1OCCO (stereo not shown) [Polysorbate 80, polysorbate 80]
Solution: 120

----------
- assay_text: in vitro
- reported_conditions: human, Cell viability, Mean (%)
outcome_measure: viability at 48 h, 0.04 %
The number alone won't do; follow it with the unit.

Problem: Can you look up the measured viability at 48 h, 0.04 % of CCCCCCCC/C=C\CCCCCCCC(=O)OCCOCC(OCCO)C1OCC(OCCO)C1OCCO (stereo not shown) [Polysorbate 80, polysorbate 80] for me?
Solution: 125%

----------
- assay_text: in vitro
- reported_conditions: human, Cell viability, Mean (%)
outcome_measure: viability at 24 h, 0.02 %
Returns: string containing the number followed by the unit.

Problem: Field request: viability at 24 h, 0.02 % | item: CCCCCCCC/C=C\CCCCCCCC(=O)OCCOCC(OCCO)C1OCC(OCCO)C1OCCO (stereo not shown) [Polysorbate 80, polysorbate 80]
Solution: 98.6%

----------
- assay_text: in vitro
- reported_conditions: human, Cell viability, Mean (%)
outcome_measure: viability at 48 h, 0.08 %
Provide a numeric answer, followed by its unit.

Problem: Find the recorded viability at 48 h, 0.08 % belonging to CCCCCCCC/C=C\CCCCCCCC(=O)OCCOCC(OCCO)C1OCC(OCCO)C1OCCO (stereo not shown) [Polysorbate 80, polysorbate 80] and report it.
Solution: 72.9%

----------
- assay_text: in vitro
- reported_conditions: human, Cell viability, Mean (%)
outcome_measure: viability at 24 h, 0.06 % (%)
Give the value, in units of %, as a plain number.

Problem: Which viability at 24 h, 0.06 % is reported for this molecule? CCCCCCCC/C=C\CCCCCCCC(=O)OCCOCC(OCCO)C1OCC(OCCO)C1OCCO (stereo not shown) [Polysorbate 80, polysorbate 80]
Solution: 101

----------
- assay_text: in vitro
- reported_conditions: human, Cell viability, Mean (%)
outcome_measure: viability at 72 h, 0.08 % (%)
// note: answer is a bare numeric in %

Problem: Look at this compound and give its reported viability at 72 h, 0.08 %. CCCCCCCC/C=C\CCCCCCCC(=O)OCCOCC(OCCO)C1OCC(OCCO)C1OCCO (stereo not shown) [Polysorbate 80, polysorbate 80]
Solution: 74.8

----------
- assay_text: in vitro
- reported_conditions: human, Cell viability, experiments 1, 2, 3
outcome_measure: viability at 48 h, 0.01 % (%)
The figure you give is taken to be in %; do not add the unit.

Problem: Tell me the measured viability at 48 h, 0.01 % of CCCCCCCC/C=C\CCCCCCCC(=O)OCCOCC(OCCO)C1OCC(OCCO)C1OCCO (stereo not shown) [Polysorbate 80, polysorbate 80] , please.
Solution: 109

----------
- assay_text: in vitro
- reported_conditions: human, Cell viability, Mean (%)
outcome_measure: viability at 24 h, 0.1 %
Give your result as the value with the unit written after it.

Problem: Any idea what its viability at 24 h, 0.1 % is? The compound is CCCCCCCC/C=C\CCCCCCCC(=O)OCCOCC(OCCO)C1OCC(OCCO)C1OCCO (stereo not shown) [Polysorbate 80, polysorbate 80]
Solution: 3.9%

----------
- assay_text: in vitro
- reported_conditions: human, Cell viability, experiments 1, 2, 3
outcome_measure: viability at 24 h, 0.02 % (%)
Field: numeric (%). Do not append units.

Problem: Which viability at 24 h, 0.02 % is listed for CCCCCCCC/C=C\CCCCCCCC(=O)OCCOCC(OCCO)C1OCC(OCCO)C1OCCO (stereo not shown) [Polysorbate 80, polysorbate 80] ?
Solution: 91.8

----------
- assay_text: in vitro
- reported_conditions: human, Cell viability, Mean (%)
outcome_measure: viability at 48 h, 0.06 % (%)
The response must be a number in % with no trailing unit.

Problem: Need viability at 48 h, 0.06 % of CCCCCCCC/C=C\CCCCCCCC(=O)OCCOCC(OCCO)C1OCC(OCCO)C1OCCO (stereo not shown) [Polysorbate 80, polysorbate 80] , thanks.
Solution: 128

----------
- assay_text: in vitro
- reported_conditions: human, Cell viability, Mean (%)
outcome_measure: viability at 72 h, 0.1 % (%)
Please respond with the number in % and leave the unit unwritten.

Problem: So what does the record say about viability at 72 h, 0.1 % for CCCCCCCC/C=C\CCCCCCCC(=O)OCCOCC(OCCO)C1OCC(OCCO)C1OCCO (stereo not shown) [Polysorbate 80, polysorbate 80] ?
Solution: 0.6

----------
- assay_text: in vitro
- reported_conditions: human, Cell viability, Mean (%)
outcome_measure: viability at 24 h, 0.01 % (%)
Answer with a number only, understood to be in %.

Problem: Need viability at 24 h, 0.01 %, item CCCCCCCC/C=C\CCCCCCCC(=O)OCCOCC(OCCO)C1OCC(OCCO)C1OCCO (stereo not shown) [Polysorbate 80, polysorbate 80]
Solution: 93.5

----------
- assay_text: in vitro
- reported_conditions: human, Cell viability, experiments 1, 2, 3
outcome_measure: viability at 72 h, 0.06 %
Please answer using the number first and the unit second.

Problem: # query: viability at 72 h, 0.06 % of entry CCCCCCCC/C=C\CCCCCCCC(=O)OCCOCC(OCCO)C1OCC(OCCO)C1OCCO (stereo not shown) [Polysorbate 80, polysorbate 80]
Solution: 148%

----------
- assay_text: in vitro
- reported_conditions: human, Cell viability, Mean (%)
outcome_measure: viability at 72 h, 0.02 %
Please don't drop the unit; write it after the number.

Problem: Given the compound CCCCCCCC/C=C\CCCCCCCC(=O)OCCOCC(OCCO)C1OCC(OCCO)C1OCCO (stereo not shown) [Polysorbate 80, polysorbate 80] , what is its reported viability at 72 h, 0.02 %?
Solution: 126%

----------
- assay_text: in vitro
- reported_conditions: human, Cell viability, experiments 1, 2, 3
outcome_measure: viability at 72 h, 0.04 % (%)
Provide the reading as a plain figure in %.

Problem: What does the record list as viability at 72 h, 0.04 % for CCCCCCCC/C=C\CCCCCCCC(=O)OCCOCC(OCCO)C1OCC(OCCO)C1OCCO (stereo not shown) [Polysorbate 80, polysorbate 80] ?
Solution: 138

----------
- assay_text: in vitro
- reported_conditions: human, Cell viability, experiments 1, 2, 3
outcome_measure: viability at 72 h, 0.01 % (%)
The answer is to be given in %; state only the numeric part.

Problem: // query viability at 72 h, 0.01 % value for entry CCCCCCCC/C=C\CCCCCCCC(=O)OCCOCC(OCCO)C1OCC(OCCO)C1OCCO (stereo not shown) [Polysorbate 80, polysorbate 80]
Solution: 122

----------
- assay_text: in vitro
- reported_conditions: human, Cell viability, Mean (%)
outcome_measure: viability at 48 h, 0.1 % (%)
Return type: number; implicit unit %.

Problem: So what does the record say about viability at 48 h, 0.1 % for CCCCCCCC/C=C\CCCCCCCC(=O)OCCOCC(OCCO)C1OCC(OCCO)C1OCCO (stereo not shown) [Polysorbate 80, polysorbate 80] ?
Solution: 0.5

----------
- assay_text: in vitro
- reported_conditions: human, Cell viability, experiments 1, 2, 3
- From the text: Cell viability and cell morphology were examined to evaluate the toxicity of excipients on retinal pigment epithelial cells. […] To assess cell viability, mitochondrial metabolism was quantified through conventional colorometric assays (i.e., the MTT assay). […] A resulting purple solution is spectrophotometrically measured. Cell viability is relative to amount of formazan and calculated as a percentage of remaining treated compared to non-treated cells. […]
outcome_measure: viability at 48 h, 0.02 % (%)
Express it in %; write the number only.

Problem: Suppose we examine the compound CCCCCCCC/C=C\CCCCCCCC(=O)OCCOCC(OCCO)C1OCC(OCCO)C1OCCO (stereo not shown) [Polysorbate 80, polysorbate 80] ; what viability at 48 h, 0.02 % value has been reported?
Solution: 122

meta.source: patent US20050250737A1
